Reported glycan array binding signal (z-score) values follow for various binders
- TESTED_ON: Neu5Ac(a2-3)Gal(b1-3)[Neu5Ac(a2-6)]GlcNAc(b1-3)[Fuc(a1-3)[Gal(b1-4)]GlcNAc(b1-6)]Gal(b1-4)Glc
- ASSAY_PROTOCOL: glycan array binding signal (z-score within array); higher = stronger binding
- CONDITIONS_USED: glycan notation: IUPAC condensed, linker removed
This excerpt belongs to a sample that is enriched for the strongest signals.

BINDER | glycan array binding signal (z-score)
Epa21 (Candida glabrata) (protein) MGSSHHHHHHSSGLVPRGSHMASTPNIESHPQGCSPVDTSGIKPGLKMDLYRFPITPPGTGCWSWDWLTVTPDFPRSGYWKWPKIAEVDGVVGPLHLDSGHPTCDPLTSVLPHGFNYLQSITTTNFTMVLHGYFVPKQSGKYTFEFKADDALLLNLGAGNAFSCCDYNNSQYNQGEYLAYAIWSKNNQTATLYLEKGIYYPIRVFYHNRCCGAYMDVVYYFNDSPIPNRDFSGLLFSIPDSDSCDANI | -0.237
Epa20 (Candida glabrata) (protein) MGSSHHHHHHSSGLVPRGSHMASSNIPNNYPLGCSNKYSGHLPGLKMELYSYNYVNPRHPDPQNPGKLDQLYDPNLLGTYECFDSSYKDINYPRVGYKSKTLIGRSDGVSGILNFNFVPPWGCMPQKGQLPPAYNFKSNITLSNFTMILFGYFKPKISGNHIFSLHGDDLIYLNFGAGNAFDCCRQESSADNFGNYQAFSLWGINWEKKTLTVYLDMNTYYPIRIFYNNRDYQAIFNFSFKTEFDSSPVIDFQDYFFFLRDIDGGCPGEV | 2.49
Mg3lysM (Mycosphaerella graminicola) (protein) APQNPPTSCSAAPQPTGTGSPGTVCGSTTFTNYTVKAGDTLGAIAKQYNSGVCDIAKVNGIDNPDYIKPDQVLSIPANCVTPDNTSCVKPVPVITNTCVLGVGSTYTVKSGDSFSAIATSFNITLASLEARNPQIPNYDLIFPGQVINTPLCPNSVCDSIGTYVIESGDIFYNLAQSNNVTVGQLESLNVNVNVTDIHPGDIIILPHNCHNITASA | 0.077
F17-L (Escherichia coli) (protein) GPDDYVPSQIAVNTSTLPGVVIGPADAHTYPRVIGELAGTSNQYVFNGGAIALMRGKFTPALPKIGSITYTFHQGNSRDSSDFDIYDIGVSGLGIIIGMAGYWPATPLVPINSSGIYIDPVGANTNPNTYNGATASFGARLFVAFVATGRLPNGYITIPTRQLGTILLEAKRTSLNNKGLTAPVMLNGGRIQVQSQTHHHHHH | -0.114
